system: T1, hCD138 (human Syndecan-1), extracellular domain (human) (UniProt P18827)
T1 sequence: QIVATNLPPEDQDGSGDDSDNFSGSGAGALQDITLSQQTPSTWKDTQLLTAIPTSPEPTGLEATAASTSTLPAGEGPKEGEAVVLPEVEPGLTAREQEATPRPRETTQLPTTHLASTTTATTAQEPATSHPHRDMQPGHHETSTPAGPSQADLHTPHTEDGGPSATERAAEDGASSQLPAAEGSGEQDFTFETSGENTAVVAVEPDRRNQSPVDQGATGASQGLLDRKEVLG
assay_info: SPR; bivalent (avidity) set-up: CD138 amine-coupled to CM5 chip (240 RU), IgG as analyte 33-300 nM; Biacore T200, HBS-P+ pH 7.4, 25 °C; 1:1 Langmuir model
# kon per entry
experimental_endpoint: kon (M⁻¹ s⁻¹)

binder	experimental_endpoint	endpoint_value
<CD138> Hg-Lw (antibody, V domains shown) VH: QVQLQQSGSELMMPGASVKISCKATGYTFTGYWIEWVKQRPGHGLEWIGEILPGSGSTNYNEKFKGKATFTADISSNTVQMQLSSLTSEDSAVYYCARRDYYGNFYYAMDYWGQGTSVTVSS VL: DIQMTQSTSSLSASLGDRVTISCSASQGINNYLNWYQQKPDGTVELLIYYTSTLQSGVPSRFSGSGSGTDYSLTISNLEPEDIGTYYCQQYSKLPRTFGGGTKLEIK	kon	210000
<CD138> Ha-Lg (antibody, V domains shown) VH: QVQLQQSGSELMMPGASVKISCKATGYTFSNYWIEWVKQRPGHGLEWIGEILPGTGSTIYNEKFKGKATFTADISSNTVQMQLSSLTSEDSAVYYCARRDYYGNFYYAMDYWGQGTSVTVSS VL: DIQMTQSTSSLSASLGDRVTISCSASQGISNYLNWYQQKPDGTVELLIYYTSSLHSGVPSRFSGSGSGTDYSLTISNLEPEDIGTYYCQQYSKLPRTFGGGTKLEIK	kon	160000
<CD138> Hb-Lg (antibody, V domains shown) VH: QVQLQQSGSELMMPGASVKISCKATGYTFTGYWIEWVKQRPGHGLEWIGEILPGTGRTIYNEKFKGKATFTADISSNTVQMQLSSLTSEDSAVYYCARRDYYGNFYYAMDYWGQGTSVTVSS VL: DIQMTQSTSSLSASLGDRVTISCSASQGISNYLNWYQQKPDGTVELLIYYTSSLHSGVPSRFSGSGSGTDYSLTISNLEPEDIGTYYCQQYSKLPRTFGGGTKLEIK	kon	390000
